- ASSAY_NAME: qHTS Assay for Inhibitors of Fructose-1,6-bisphosphate Aldolase from Giardia Lamblia: Coupling assay counterscreen; also: % is scaled to controls: 0 for no effect and ±100 for the full control effect
- COND: coupling enzyme system counterscreen, AmpLite Red fluorescence; at 58.2 µM (top of the series)
Hit rate of the full screen: of about 290,000 compounds, about 2,000 (0.69%) were called active. The sample as a whole holds a higher share of actives than the screen did.
PROPERTY_NAME: activity change, negative = inhibition (%)
Field format: number, assumed %, no unit text.

Cn1cc(-c2nc3cnc(N4CCNCC4)nc3n(CCc3ccccc3)c2=O)c2ccccc21 :: -0.191
CC1=C(C(N)=O)C(c2ccc(F)cc2)n2nc(CCCO)nc2N1 (stereo unspecified) :: -0.212
COC(=O)N/N=C/c1cn(CCCOc2ccc(C)cc2)c2ccccc12 :: -8.57
Cc1nn(C)cc1/C=C1\CCC/C(=C\c2cn(C)nc2C)C1=O :: -3.28
CCCCN1C(=O)/C(=C(/C#N)C(N)=O)c2ccccc21 :: -19.4
C#CCN1C(=O)C(O)(CC(=O)c2cc(OC)ccc2OC)c2ccccc21 (stereo unspecified) :: 2.24
COc1ccc(Cl)cc1NC(=O)COC(=O)C(CC(C)C)N1C(=O)C2CC=CCC2C1=O (stereo unspecified) :: -0.682
Cc1ccc(OCC(=O)NCCCNC(=O)c2cccnc2)cc1C :: -0.615
COc1ccc(N2C(=O)c3ccccc3NC2c2ccc(OC)c(CN3CCOCC3)c2)cc1 (stereo unspecified) :: -1.28
COC(=O)C/C=C/[C@@H](C)[C@H](NC(=O)OCC(Cl)(Cl)Cl)c1ccccc1 :: -1.95

The compound listed as c1ccc2cc3c(NCCN4CCOCC4)ccnc3cc2c1 shows activity change, negative = inhibition equal to -52.2

The compound listed as C[n+]1ccc(/C=C/c2c[nH]c3ccccc23)cc1 shows activity change, negative = inhibition equal to -48.5

The compound listed as Cc1cc(C)c(/C=C2\C(=O)Nc3ccccc32)[nH]1 shows activity change, negative = inhibition equal to -3.49

The compound listed as Cc1ccccc1NC(=O)N1CCCC1C(=O)NCc1ccccc1 (stereo unspecified) shows activity change, negative = inhibition equal to 2.24

The compound listed as C/C(=N\NC(=O)CNc1cccc2ccccc12)c1ccc(Br)s1 shows activity change, negative = inhibition equal to -0.7

The compound listed as CCOC(=O)c1cc2n(c1N)-c1ccccc1C2=O shows activity change, negative = inhibition equal to -30.6

The compound listed as CC(C)(C)c1ccc(NC(=O)NCc2ccco2)cc1 shows activity change, negative = inhibition equal to -0.174

The compound listed as O=C(Nc1ccc2nccnc2c1)c1ccco1 shows activity change, negative = inhibition equal to -1.38

The compound listed as COc1ccc2oc(=O)c(C(=O)NCc3ccccn3)cc2c1 shows activity change, negative = inhibition equal to -2.85

The compound listed as O=C(Nc1cccc([N+](=O)[O-])c1)N1CCc2ccccc2C1 shows activity change, negative = inhibition equal to -5.24

The compound listed as Cc1cc2c(cc1S(=O)(=O)NCc1ccc(Cl)cc1)OCC(=O)N2 shows activity change, negative = inhibition equal to 1.64

The compound listed as Cc1ccc(C(=O)NC2CCN(C(=O)Nc3ccc(F)cc3)CC2)cc1 shows activity change, negative = inhibition equal to -0.456

Hey, just so you know, these numbers are from PubChem BioAssay AID2472.
